- test.details: Tested for in vitro for cardiotoxicity by performing neonatal rat heart myocyte assay method
- Format: functional
For each of the compounds below, state its pIC50.
One number for each entry, as −log10 of the molar value.

Past entries and their recorded results:
Ask: Any idea what pIC50 was measured for CN(C)CCN1C(=O)c2cccc3cc4ccccc4c(c23)C1=O [AZONAFIDE] ?
Reply: 5.70

Ask: What pIC50 value was documented for this compound, CNCCN1C(=O)c2cccc3cc4ccccc4c(c23)C1=O ?
Reply: 5.15

Would you mind listing pIC50 for each of the following compounds?
1. O=C1c2cccc3cc4ccccc4c(c23)C(=O)N1CCCN(CCO)CCO
2. O=C1c2cccc3cc4ccccc4c(c23)C(=O)N1CCNCCO
3. CN(C)CCN1C(=O)c2cccc3cc(N)cc(c23)C1=O [AMONAFIDE]
4. CN(C)CCCN1C(=O)c2cccc3cc4ccccc4c(c23)C1=O

Reply:
1. 5.05
2. 6.03
3. 4.32
4. 4.94

Batch: pIC50 for all items listed.
1. CN(C)c1ccc(N2C(=O)c3cccc4cc5ccccc5c(c34)C2=O)cc1
2. O=C1c2cccc3cc4ccccc4c(c23)C(=O)N1CCN1CCCCC1
3. O=C1c2cccc3cc4ccccc4c(c23)C(=O)N1CCN1CCNCC1
4. O=C1c2cccc3cc4ccccc4c(c23)C(=O)N1CCN1CCCC1
5. CCN1CCCC(N2C(=O)c3cccc4cc5ccccc5c(c34)C2=O)C1 (stereo not drawn)

Reply:
1. 4.43
2. 4.98
3. 5.17
4. 6.04
5. 5.06

Consider the following items and state reported pIC50 for each.
1. CCN1CCCC1CN1C(=O)c2cccc3cc4ccccc4c(c23)C1=O (stereo not drawn)
2. CN1CCCC1CCN1C(=O)c2cccc3cc4ccccc4c(c23)C1=O (stereo not drawn)

Reply:
4.82
5.15

----------
- test.details: Acid dissociation constant was determined
- Assay type: ADME
property.name: pKa

Ask: Recorded pKa for O=C1c2cccc3cc4ccccc4c(c23)C(=O)N1CCc1ccccn1 , please?
Reply: 5.4

Would you be so kind as to report pKa for each listed record?
1. CN(C)CCCN1C(=O)c2cccc3cc4ccccc4c(c23)C1=O
2. CN(C)CCN1C(=O)c2cccc3cc4ccccc4c(c23)C1=O [AZONAFIDE]
3. CN(C)CCN1C(=O)c2cccc3cc(N)cc(c23)C1=O [AMONAFIDE]

Reply:
1: 7.3; 2: 7.3; 3: 7.3

----------
- test.details: The quotient of the IC50 is the myocytes divided by the mean IC50 in the four cell lines (UACC375,OVCAR3,L1210 sensitive,L1210 resistant)
- Assay type: ADME
- condition.set: read-out: Toxicity ratio
Answer F if selectivity ratio is under 9, and T if it is 9 or more.

Below are worked cases with known answers.
Ask: Quick check: does CN(C)c1ccc(N2C(=O)c3cccc4cc5ccccc5c(c34)C2=O)cc1 have selectivity ratio greater than or equal to 9?
Reply: F

Ask: // inclusive: selectivity ratio at least 9? input: O=C1c2cccc3cc4ccccc4c(c23)C(=O)N1c1cccnc1
Reply: T

Ask: Item O=C1c2cccc3cc4ccccc4c(c23)C(=O)N1CCN1CCCCC1 with selectivity ratio of 9 or above?
Reply: T

Ask: Decide: selectivity ratio of CN1CCCC1CCN1C(=O)c2cccc3cc4ccccc4c(c23)C1=O (stereo unspecified) >= 9?
Reply: T

Ask: Would you say CCN1CCCC(N2C(=O)c3cccc4cc5ccccc5c(c34)C2=O)C1 (stereo unspecified) shows selectivity ratio at minimum 9?
Reply: F

Ask: Check the entry CN(C)CCCN1C(=O)c2cccc3cc4ccccc4c(c23)C1=O : does selectivity ratio equal or exceed 9?
Reply: T

Continuing:
Ask: Can CCN1CCCC1CN1C(=O)c2cccc3cc4ccccc4c(c23)C1=O (stereo unspecified) be said to have selectivity ratio at or above 9?
Reply: T

Ask: Tell me whether selectivity ratio is at least 9 here: CNCCN1C(=O)c2cccc3cc4ccccc4c(c23)C1=O
Reply: T

----------
- System: COLO 205
- test.details: Tested against human colon carcinoma COLO 205 cell line in vitro
- Type: functional, cell-based
property.name: IC50 (nM)
One number for each entry, in nM.

Ask: Any idea what IC50 was measured for CN(C)CCN1C(=O)c2cccc3cc4ccccc4c(c23)C1=O [AZONAFIDE] ?
Reply: 36

----------
- Tested on: L1210
- test.details: Tested against L1210 resistant murine leukemia cells by MTT tetrazolium dye assay
- Format: functional, cell-based
- condition.set: Mus musculus
property.name: IC50 (nM)
Answers are plain numbers, in nM.

The examples below pair each entry with its known result.
Ask: For the compound shown here, O=C1c2cccc3cc4ccccc4c(c23)C(=O)N1CCNCCO , give the reported IC50.
Reply: 41

Ask: Which measured IC50 value corresponds to CCN1CCCC1CN1C(=O)c2cccc3cc4ccccc4c(c23)C1=O (stereo not given) ?
Reply: 55

Ask: Given the entry O=C1c2cccc3cc4ccccc4c(c23)C(=O)N1CCc1ccccn1 , report its measured IC50.
Reply: 15500

Lab note: each compound below needs its IC50 filled in.
1. CN(C)c1ccc(N2C(=O)c3cccc4cc5ccccc5c(c34)C2=O)cc1
2. CN(C)CCN1C(=O)c2cccc3cc4ccccc4c(c23)C1=O [AZONAFIDE]
3. O=C1c2cccc3cc4ccccc4c(c23)C(=O)N1Cc1ccccn1

Reply:
[1790, 7, 26700]

Value sought for every listed compound: IC50.
1. CCN1CCCC(N2C(=O)c3cccc4cc5ccccc5c(c34)C2=O)C1 (stereo not given)
2. CN1CCCC1CCN1C(=O)c2cccc3cc4ccccc4c(c23)C1=O (stereo not given)
3. O=C1c2cccc3cc4ccccc4c(c23)C(=O)N1N1CC1
4. CNCCN1C(=O)c2cccc3cc4ccccc4c(c23)C1=O
5. O=C1c2cccc3cc4ccccc4c(c23)C(=O)N1CCN1CCCC1
6. O=C1c2cccc3cc4ccccc4c(c23)C(=O)N1CCN1CCOCC1
7. O=C1c2cccc3cc4ccccc4c(c23)C(=O)N1c1ncc[nH]1

Reply:
[609, 56, 791, 20.6, 11.8, 512, 148]

Dear reader, for each entry below, please note its IC50.
1. O=C1c2cccc3cc4ccccc4c(c23)C(=O)N1c1cccnc1
2. O=C1c2cccc3cc4ccccc4c(c23)C(=O)N1CCN1CCNCC1
3. CN(C)CCCN1C(=O)c2cccc3cc4ccccc4c(c23)C1=O
4. O=C1c2cccc3cc4ccccc4c(c23)C(=O)N1CCN1CCCCC1
5. CN(C)CCN1C(=O)c2cccc3cc(N)cc(c23)C1=O [AMONAFIDE]
6. O=C1c2cccc3cc4ccccc4c(c23)C(=O)N1CCCN(CCO)CCO
7. O=C1c2cccc3cc4ccccc4c(c23)C(=O)N1Cc1cccnc1

Reply:
1: 554; 2: 463; 3: 82; 4: 51; 5: 625; 6: 142; 7: 2670

----------
- test.details: The quotient of the IC50 is the myocytes divided by the mean IC50 in the four cell lines (UACC375,OVCAR3,L1210 sensitive,L1210 resistant)
- Format: ADME
- condition.set: read-out: Toxicity ratio
Kindly supply the reported selectivity ratio values for the records listed here.

Examples with their reported selectivity ratio follow.
Ask: Dear colleague, I am looking for the recorded selectivity ratio of the following compound: O=C1c2cccc3cc4ccccc4c(c23)C(=O)N1Cc1cccnc1
Reply: > 4

Ask: Form field: reported selectivity ratio of O=C1c2cccc3cc4ccccc4c(c23)C(=O)N1CCN1CCNCC1
Reply: 8.8

Here is the next item to consider.
Ask: # get_value(readout='selectivity ratio', item= O=C1c2cccc3cc4ccccc4c(c23)C(=O)N1Cc1ccccn1 )
Reply: > 1
